Test system: human islet amyloid polypeptide (hIAPP) (Homo sapiens, UniProt P10997)
Sequence (P10997 34-70 limits assumed): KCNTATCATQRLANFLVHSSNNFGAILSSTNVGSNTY
Measured quantity: pIC50
# log scale: pIC50 equals minus log10 of the concentration in mol/L

[Q] Bench note: what pIC50 did C[C@@H]1O[C@@H](O[C@@H]2[C@@H](O)[C@H](OCCc3ccc(O)c(O)c3)O[C@H](CO)[C@H]2OC(=O)/C=C/c2ccc(O)c(O)c2)[C@H](O)[C@H](O)[C@H]1O [Acteoside, acteoside] show?
[A] 4.68
